target: CD73 (Homo sapiens (Human)); type: biochemical; conditions: 1 mM NaH2PO4 in enzyme buffer, CD73 0.3 nM, AMP 15 uM
Sequence (P21589 27-574): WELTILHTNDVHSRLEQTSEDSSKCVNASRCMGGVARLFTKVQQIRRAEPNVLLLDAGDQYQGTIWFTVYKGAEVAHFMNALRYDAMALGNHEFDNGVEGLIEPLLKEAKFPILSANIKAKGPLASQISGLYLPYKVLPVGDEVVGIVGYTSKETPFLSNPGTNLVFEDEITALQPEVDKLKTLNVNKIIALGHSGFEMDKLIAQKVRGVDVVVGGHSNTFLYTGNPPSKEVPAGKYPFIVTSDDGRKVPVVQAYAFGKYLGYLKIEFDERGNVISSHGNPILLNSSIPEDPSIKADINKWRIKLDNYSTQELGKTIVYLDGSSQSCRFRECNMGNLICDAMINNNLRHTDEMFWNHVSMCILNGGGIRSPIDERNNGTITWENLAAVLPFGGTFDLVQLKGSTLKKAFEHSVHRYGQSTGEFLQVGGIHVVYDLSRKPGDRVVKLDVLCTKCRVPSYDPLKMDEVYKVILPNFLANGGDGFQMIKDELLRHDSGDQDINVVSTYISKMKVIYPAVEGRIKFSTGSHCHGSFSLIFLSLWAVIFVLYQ
measure: IC50 (nM)

Below are worked cases with known answers.
[[record]]
compound = "O=c1[nH]cc(-c2cc([C@H]3C[C@@H]3c3ccc4c(Cl)nn(CC(F)(F)F)c4c3)c3nccn3n2)c(=O)[nH]1 [Example 459]"
system_tested = "CD73 (Homo sapiens (Human))"
unit_info = "nM"
test_value = 0.75

[[record]]
compound = "O=c1[nH]cc(-c2cc([C@H]3C[C@@H]3c3ccc4cnn(CC(F)F)c4c3F)c3nccn3n2)c(=O)[nH]1 [Example 129]"
system_tested = "CD73 (Homo sapiens (Human))"
unit_info = "nM"
test_value = 1.11

[[record]]
compound = "O=c1[nH]cc(-c2cc(N3C[C@H](Oc4ccccn4)C(F)(F)C3)c3nccn3n2)c(=O)[nH]1 [Example 537]"
system_tested = "CD73 (Homo sapiens (Human))"
unit_info = "nM"
test_value = 0.42

[[record]]
compound = "CC1(C)C(=O)N(CC(F)(F)F)c2cc([C@H]3C[C@@H]3c3cc(-c4c[nH]c(=O)[nH]c4=O)nn4c(F)cnc34)cnc21 [Example 723]"
system_tested = "CD73 (Homo sapiens (Human))"
unit_info = "nM"
test_value = 2.75


P: CC(C)C(C)Oc1cc(-c2c[nH]c(=O)[nH]c2=O)nn2ccnc12 (stereo not shown) [Example 680]
Q: N#Cc1cc(F)c([C@H]2C[C@@H]2c2cc(-c3c[nH]c(=O)[nH]c3=O)nn3ccnc23)cc1F [Example 565]
R: C[C@@H]1CN(c2cc(-c3c[nH]c(=O)[nH]c3=O)nn3c(F)cnc23)CC1(F)F [Example 519]
Order each entry by recorded IC50, climbing from the minimum. Rank them, then answer with their labels in that order.
Q, R, P
(Q: 1.98 nM, R: 6.58 nM, P: 225 nM)

* * *

target: CD73 (Homo sapiens (Human)); type: biochemical; settings: 1 mM NaH2PO4 in enzyme buffer, CD73 0.3 nM, AMP 15 uM
pIC50: −log10 of the molar value.
measure: pIC50

[[record]]
compound = "O=c1[nH]cc(-c2cc([C@@H]3C[C@H]3c3cc4c(cn3)cnn4CC(F)(F)F)c3ncc(F)n3n2)c(=O)[nH]1"
measure = "pIC50"
test_value = 8.22

[[record]]
compound = "O=c1[nH]cc(-c2cc([C@H]3C[C@@H]3c3cc4c(cn3)c(F)cn4CC(F)(F)F)c3nccn3n2)c(=O)[nH]1 [Example 392]"
measure = "pIC50"
test_value = 8.90

[[record]]
compound = "Cn1ccnc1C(F)(F)COc1cc(-c2c[nH]c(=O)[nH]c2=O)nn2ccnc12"
measure = "pIC50"
test_value = 8.01

[[record]]
compound = "O=c1[nH]cc(-c2cc(N3C[C@@H](Oc4ccc(OC(F)(F)C(F)(F)F)cn4)C(F)(F)C3)c3nccn3n2)c(=O)[nH]1"
measure = "pIC50"
test_value = 7.46

[[record]]
compound = "CC1(C)CN(c2cc(-c3c[nH]c(=O)[nH]c3=O)nn3c(Cl)cnc23)CC1(F)F"
measure = "pIC50"
test_value = 8.90

[[record]]
compound = "COC(=O)c1ccc(C2CN(c3cc(-c4c[nH]c(=O)[nH]c4=O)nn4ccnc34)C2)cc1"
measure = "pIC50"
test_value = 7.86


A: O=c1[nH]cc(-c2cc(N3CC(F)(CO)C3)c3nccn3n2)c(=O)[nH]1
B: N#Cc1ccc([C@H]2C[C@@H]2c2cc(-c3c[nH]c(=O)[nH]c3=O)nn3ccnc23)c(F)c1F
pIC50 comparison. Which is larger, A or B ? Write the label of whichever entry you select.
B
(B: 8.54, A: 7.41)

A: O=C1N(CC(F)(F)F)c2cc([C@H]3C[C@@H]3c3cc(-c4c[nH]c(=O)[nH]c4=O)nn4ccnc34)ccc2C12CC2 (single isomer, unassigned) [Example 391]
B: C[C@H]1CN(c2cc(-c3c[nH]c(=O)[nH]c3=O)nn3c(F)cnc23)CC1(F)F
C: COC(=O)c1cccc(C2CN(c3cc(-c4c[nH]c(=O)[nH]c4=O)nn4ccnc34)C2)c1
D: O=c1[nH]cc(-c2cc([C@H]3C[C@@H]3c3ncc(Br)cn3)c3nccn3n2)c(=O)[nH]1
Please produce an ascending ranking of these compounds based on pIC50. State the ranking by listing the labels in the requested order.
C, B, D, A

A: Cc1nc2ccc([C@H]3C[C@@H]3c3cc(-c4c[nH]c(=O)[nH]c4=O)nn4ccnc34)cc2s1 (racemic)
B: O=c1[nH]cc(-c2cc([C@H]3C[C@@H]3c3ccncc3)c3ncc(F)n3n2)c(=O)[nH]1 (racemic)
C: O=c1[nH]cc(-c2cc(N3CC[C@@H](OC(F)F)C3)c3nccn3n2)c(=O)[nH]1
D: O=c1[nH]cc(-c2cc([C@H]3C[C@@H]3c3ccccc3Cl)c3nccn3n2)c(=O)[nH]1 (racemic)
E: O=c1[nH]cc(-c2cc(NCCc3ccc(F)cc3)c3nccn3n2)c(=O)[nH]1
Sort these compounds on pIC50 so the largest reading comes first. To answer, arrange all of the labels according to the requested order.
A, B, C, D, E
(A: 9.10, B: 8.62, C: 8.36, D: 7.88, E: 7.19)

P: N#Cc1cc([C@H]2C[C@@H]2c2cc(-c3c[nH]c(=O)[nH]c3=O)nn3ccnc23)ccc1OC(F)(F)F (racemic)
Q: COC[C@@H](C)NC(=O)O[C@H]1CN(c2cc(-c3c[nH]c(=O)[nH]c3=O)nn3ccnc23)CC1(F)F
R: O=C(NCC(F)(F)F)OC1CN(c2cc(-c3c[nH]c(=O)[nH]c3=O)nn3ccnc23)CC1(F)F (centres unmarked)
S: CC(=O)NC1CN(c2cc(-c3c[nH]c(=O)[nH]c3=O)nn3ccnc23)CC1(F)F (centres unmarked)
T: O=c1[nH]cc(-c2cc(N3CC(CC(F)F)C3)c3nccn3n2)c(=O)[nH]1
Put the entries in order of pIC50, starting with the largest number. # list labels per requested ordering
Q, R, P, S, T
(Q: 9.20, R: 8.79, P: 8.55, S: 8.35, T: 6.80)
